organism: Rattus norvegicus; assay: DrugMatrix - Regimen: Daily Repeat; assay type: toxicity, organism-based, Sprague-Dawley; design: regimen Daily Repeat, gender Male, age 6-8 weeks; conditions: in vivo, po, 0 mg/kg, 72 h, tissue Blood, route oral GAVAGE, dose level Control, time 3 day, […]
// values below are reported ABSOLUTE SEGMENTED NEUTROPHIL
readout name: ABSOLUTE SEGMENTED NEUTROPHIL (CELLS/uL)

molecule	measured value
CO[C@H]1O[C@@H]2O[C@@]3(C)CC[C@H]4[C@H](C)CC[C@@H]([C@H]1C)[C@@]24OO3	1608.5
COc1ccccc1OCCNCC(O)COc1cccc2[nH]c3ccccc3c12 (stereo not drawn) [CARVEDILOL]	869.83
CCOC(=O)C1=C(C)NC(C)=C(C(=O)OCC)C1c1ccccc1/C=C/C(=O)OC(C)(C)C [LACIDIPINE]	516.83

###

species on record: Rattus norvegicus; assay: DrugMatrix - Regimen: Daily Repeat; format: toxicity, organism-based, Sprague-Dawley; set-up: regimen Daily Repeat, gender Male, age 6-8 weeks; conditions: in vivo, po, 1500 mg/kg, 72 h, tissue Blood, route oral GAVAGE, dose level High, time 3 day, vehicle .5 % CMC

molecule	units of measure	LYMPHOCYTE
O=C(O)CCc1nc(-c2ccccc2)c(-c2ccccc2)o1 [OXAPROZIN]	%	82.33
Cc1ccc(S(=O)(=O)NC(=O)NN2CCCCCC2)cc1 [TOLAZAMIDE]	%	92
COc1cc(/C=C/C(=O)O)ccc1O [FERULATE]	%	89
CC[C@H]1OC(=O)[C@H](C)[C@@H](O[C@H]2C[C@@](C)(OC)[C@@H](O)[C@H](C)O2)[C@H](C)[C@@H](O[C@@H]2O[C@H](C)C[C@H](N(C)C)[C@H]2O)[C@](C)(O)C[C@@H](C)C(=O)[C@H](C)[C@@H](O)[C@]1(C)O [ERYTHROMYCIN]	%	91
COc1ccc(Cl)cc1C(=O)NCCc1ccc(S(=O)(=O)NC(=O)NC2CCCCC2)cc1 [GLYBURIDE]	%	88.67

###

// values below are reported ALANINE AMINOTRANSFERASE
species: Rattus norvegicus; test: DrugMatrix - Regimen: Daily Repeat; assay type: toxicity, organism-based, Sprague-Dawley; design: regimen Daily Repeat, gender Male, age 6-8 weeks; conditions: in vivo, po, 0 mg/kg, 120 h, tissue Plasma, route oral GAVAGE, dose level Control, time 5 day, vehicle 100 % WATER

compound	ALANINE AMINOTRANSFERASE
CCN(CC)C(=S)SSC(=S)N(CC)CC	55.33 u/L
Cc1cn([C@H]2C=C[C@@H](CO)O2)c(=O)[nH]c1=O [STAVUDINE]	48.33 u/L
C1CCN2C[C@@H]3C[C@@H](CN4CCCC[C@@H]34)[C@H]2C1 [SPARTEINE]	50.17 u/L

###

species on record: Rattus norvegicus; assay: DrugMatrix - Regimen: Daily Repeat; assay type: toxicity, organism-based, Sprague-Dawley; parameters: regimen Daily Repeat, gender Male, age 6-8 weeks; details: in vivo, po, 0 mg/kg, 120 h, tissue Plasma, route oral GAVAGE, dose level Control, time 5 day, […]
// values below are reported TOTAL PROTEIN

compound	TOTAL PROTEIN (G/DL)
CS(=O)(=O)c1ccc(C2=C(c3ccccc3)C(=O)OC2)cc1	6.05
CC(C)(c1ccc(O)cc1)c1ccc(O)cc1	5.63
c1ccc2c(c1)Nc1ccccc1S2	6.05
CO[C@H]1O[C@@H]2O[C@@]3(C)CC[C@H]4[C@H](C)CC[C@@H]([C@H]1C)[C@@]24OO3	5.85
CC#C[C@]1(O)CC[C@H]2[C@@H]3CCC4=CC(=O)CCC4=C3[C@@H](c3ccc(N(C)C)cc3)C[C@@]21C	5.67
CCC(C)(C)C(=O)O[C@H]1C[C@@H](C)C=C2C=C[C@H](C)[C@H](CC[C@@H]3C[C@@H](O)CC(=O)O3)[C@H]21	5.67
Oc1ncnc2[nH]ncc12	5.92
Cc1cccc(C)c1NC(=O)C(C)N (centres undefined) [TOCAINIDE]	6
CCOC(=O)C1=C(C)NC(C)=C(C(=O)OCC)C1c1ccccc1/C=C/C(=O)OC(C)(C)C	5.72
